Please go through the items and note down their combination Emax.
Test system: NCI-H1781 (Lung Adenocarcinoma)
Experiment: combination Emax (second highest fraction inhibited in the dose matrix, 72 h); higher = more inhibition; extreme values may be limits of the assay

molecule: Cc1cc2ncnn2cc1Nc1ncc2c(n1)n(C1CCOCC1)c(=O)n2C [AZD7648] + CN(C)CCCOc1ccc(-c2ccc3ncc4c(c3c2)n(C2CCOCC2)c(=O)n4C)cn1 [AZD0156] (first compound max 10 µM, 7x7, partner max 1 µM)
data.value: 0.352
--
molecule: CCN(CCO)CCCOc1ccc2c(Nc3cc(CC(=O)Nc4cccc(F)c4)[nH]n3)ncnc2c1 [AZD2811] + C[C@@H]1COCCN1C2=NC(=NC(=C2)C3(CC3)[S@](=N)(=O)C)C4=C5C=CNC5=NC=C4 [AZD6738] (first compound max 1 µM, 7x7, partner max 10 µM)
data.value: 0.775
--
molecule: COc1nnc2ccc(N3CCC(c4ccc(OCCN5CCN(C)C(=O)[C@H]5C)cc4)CC3)nn12 [AZD5153] + CN(CC[C@H](CSC1=CC=CC=C1)NC2=C(C=C(C=C2)S(=O)(=O)NC(=O)C3=CC=C(C=C3)N4CCC(CC4)[C@H](C5=CC=CC=C5C6=CC=C(C=C6)Cl)O)S(=O)(=O)C(F)(F)F)CCO [AZD4320] (first compound max 1 µM, 7x7, partner max 1 µM)
data.value: 0.251
--
molecule: NC1(C(=O)N[C@@H](CCO)c2ccc(Cl)cc2)CCN(c2ncnc3[nH]ccc23)CC1 [Capivasertib] + CC(=O)c1c(C)c2cnc(Nc3ccc(N4CCNCC4)cn3)nc2n(C2CCCC2)c1=O [Palbociclib] (first compound max 10 µM, 7x7, partner max 10 µM)
data.value: 0.479
--
molecule: CN(CCO)CC[C@H](CSc1ccccc1)Nc1ccc(S(=O)(=O)NC(=O)c2ccc(N3CCC([C@@H](O)c4ccccc4-c4ccc(Cl)cc4)CC3)cc2)cc1S(=O)(=O)C(F)(F)F [AZD4320] + C[C@@H]1COCCN1C2=NC(=NC(=C2)C3(CC3)[S@](=N)(=O)C)C4=C5C=CNC5=NC=C4 [AZD6738] (first compound max 1 µM, 7x7, partner max 10 µM)
data.value: 0.519

# next molecule below
Entry CC1(C)CCC(CN2CCN(c3ccc(C(=O)NS(=O)(=O)c4ccc(NCC5CCOCC5)c([N+](=O)[O-])c4)c(Oc4cnc5[nH]ccc5c4)c3)CC2)=C(c2ccc(Cl)cc2)C1 [Venetoclax] + C[C@@H]1COCCN1C2=NC(=NC(=C2)C3(CC3)[S@](=N)(=O)C)C4=C5C=CNC5=NC=C4 [AZD6738] (first compound max 1 µM, 7x7, partner max 10 µM) ; combination Emax = 0.451
